Assay: Permeability across apical to basolateral in MDCK1 cells
Assay type: ADME, cell-based, Canis lupus familiaris
Conditions: dog, MDCK; read-out: permeability
Overview of reported Papp A→B across a group of compounds:

compound=COCCCN1CCN(c2ccc(Nc3cc(-c4ccnc(N5CCn6c(cc7c6CC(C)(C)C7)C5=O)c4CO)cn(C)c3=O)nc2)CC1 reported_result="9 ×10⁻⁶ cm/s"

Noted for CC(=O)N1CCN(c2ccc(Nc3cc(-c4ccnc(N5CCn6c(cc7c6CC(C)(C)C7)C5=O)c4CO)cn(C)c3=O)nc2)CC1 : its Papp A→B reads 11.1 ×10⁻⁶ cm/s

====

Assay: Half life in rat at 0.2 mg/kg, iv or 1 mg/kg, po administered as single dose via cassette dosing
Assay type: ADME, organism-based
Conditions: in vivo
readout.type: half-life (h)
Write the value in h as a bare number.

Noted for C[C@H]1CN(C2COC2)CCN1c1ccc(Nc2cc(-c3ccnc(N4CCn5c(cc6c5CC(C)(C)C6)C4=O)c3CO)cn(C)c2=O)nc1 : its half-life reads 2.2
